pIC50: −log10 of the molar value.
A short record of pIC50 observed with FAAH (Mus musculus (Mouse)) follows.
Sequence (O08914 whole entry): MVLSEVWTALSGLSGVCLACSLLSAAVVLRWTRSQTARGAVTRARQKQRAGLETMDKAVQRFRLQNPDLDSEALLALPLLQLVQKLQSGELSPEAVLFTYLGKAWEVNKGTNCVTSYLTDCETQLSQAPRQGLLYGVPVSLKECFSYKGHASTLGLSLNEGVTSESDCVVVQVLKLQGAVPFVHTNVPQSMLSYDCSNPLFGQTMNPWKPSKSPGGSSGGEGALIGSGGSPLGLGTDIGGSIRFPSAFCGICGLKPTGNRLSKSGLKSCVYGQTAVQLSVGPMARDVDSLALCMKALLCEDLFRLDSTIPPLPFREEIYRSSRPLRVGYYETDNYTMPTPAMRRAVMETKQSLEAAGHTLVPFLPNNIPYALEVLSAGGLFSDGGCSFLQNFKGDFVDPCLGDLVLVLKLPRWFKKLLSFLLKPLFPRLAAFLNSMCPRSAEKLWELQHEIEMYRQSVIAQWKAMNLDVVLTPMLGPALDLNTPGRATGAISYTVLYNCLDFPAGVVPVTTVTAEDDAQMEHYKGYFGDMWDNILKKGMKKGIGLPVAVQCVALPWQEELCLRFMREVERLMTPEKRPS

>  <compound>
CC(=O)N(C)c1cnn(C(=O)N2CCC3(CCN(Cc4cccc(C(F)(F)F)c4)C3)C2)c1 (single isomer, unassigned) [Example 65]

>  <pIC50>
≥ 7.00

$$$$
>  <compound>
CS(=O)(=O)Nc1cnn(C(=O)N2CCC3(CCN(Cc4cc(Cl)cc(C(F)(F)F)c4)C3)CC2)c1

>  <pIC50>
≥ 7.00

$$$$
>  <compound>
CC(=O)N(C)c1cnn(C(=O)N2CCC3(CCN(Cc4cccc(Cl)c4C)C3)C2)c1 (stereo not drawn)

>  <pIC50>
≥ 7.00

$$$$
>  <compound>
CC(=O)N(C)c1cnn(C(=O)N2CCN(Cc3ccc(C(F)(F)F)cc3)CC2)c1

>  <pIC50>
6.00 to 7.00

$$$$
>  <compound>
CC(=O)N(C)c1cnn(C(=O)N2CC3CN(Cc4cccc(C)c4)CC3C2)c1 (stereo not drawn)

>  <pIC50>
≥ 7.00

$$$$
>  <compound>
CC(=O)N(C)c1cnn(C(=O)N2CCC3(CCN(Cc4ccccc4C(F)(F)F)C3)C2)c1 (stereo not drawn)

>  <pIC50>
≥ 7.00

$$$$
>  <compound>
CC(=O)N(C)c1cnn(C(=O)N2CCN(Cc3ccc(C(F)(F)F)cc3N3CCCC3)CC2)c1

>  <pIC50>
6.00 to 7.00

$$$$
>  <compound>
CC(=O)N(C)c1cnn(C(=O)N2CCC3(CCN(Cc4ccc(Cl)cc4)C3)CC2)c1

>  <pIC50>
6.00 to 7.00

$$$$
>  <compound>
CC(=O)N(C)c1cnn(C(=O)N2C[C@H]3C[C@H](N(C)Cc4ccc(N5C6CCC5COC6)c(C(F)(F)F)c4)C[C@H]3C2)c1

>  <pIC50>
≥ 7.00

$$$$
>  <compound>
CC(=O)N(C)c1cnn(C(=O)N2CC3CN(Cc4cc(C)cc(C)c4)CC3C2)c1 (stereo not drawn)

>  <pIC50>
≥ 7.00

$$$$
>  <compound>
CC(=O)N(C)c1cnn(C(=O)N2C[C@H]3C[C@@H](N(C)Cc4cc(N5C6CCC5COC6)cc(C(F)(F)F)c4)C[C@H]3C2)c1

>  <pIC50>
6.00 to 7.00

$$$$
>  <compound>
CS(=O)(=O)Nc1cnn(C(=O)N2CC3CN(Cc4cc(Cl)ccc4C(F)(F)F)CC3C2)c1 (stereo not drawn)

>  <pIC50>
6.00 to 7.00

$$$$
>  <compound>
CC(=O)N(C)c1cnn(C(=O)N2CCC3(CCN(Cc4cccc(Oc5ccccc5)c4)C3)C2)c1 (stereo not drawn)

>  <pIC50>
≥ 7.00

$$$$
>  <compound>
CC(=O)N(C)c1cnn(C(=O)N2CCN(Cc3ccc(Cl)c(Cl)c3)CC2)c1

>  <pIC50>
6.00 to 7.00

$$$$
>  <compound>
CC(=O)N(C)c1cnn(C(=O)N2CC3CN(Cc4ccc(C(F)(F)F)c(N5CCCC5)c4)CC3C2)c1 (stereo not drawn)

>  <pIC50>
≥ 7.00

$$$$
